# experimental.target: T1, HLA-B*08:01 (human)
# T1 construct: MHC monomer first loaded with a UV-sensitive peptide that is cleaved by UV light and exchanged for the test peptide
# experimental.details: UV peptide exchange ELISA

binder | peptide exchange yield
ERRVKVSSL [ERRVKVSSL (SEQ ID NO: 51)] | 50 to 75%
QILQHHVL [QILQHHVL (SEQ ID NO: 87)] | 50 to 75%
EAFSRASL [EAFSRASL (SEQ ID NO: 37)] | 20 to 50%
FPLTSIIAI [FPLTSIIAI (SEQ ID NO: 198)] | 50 to 75%
IANLRVKNI [IANLRVKNI (SEQ ID NO: 103)] | 50 to 75%
SRFGKFVQL [SRFGKFVQL (SEQ ID NO: 209)] | 20 to 50%
ILKEQSSSSF [ILKEQSSSSF (SEQ ID NO: 156)] | 20 to 50%
HLHPKGREL [HLHPKGREL (SEQ ID NO: 25)] | 20 to 50%

These entries and their values trace back to patent US20250145684A1.
